Attribute: pEC50
# Subject of test: F508delCFTR (Homo sapiens, UniProt P13569, DEL508-508)
# Construct: expressed in transfected cells; host or cells: CFBE41o- (human lung derived epithelial cell line), doxycycline-inducible expression
# Sequence (P13569 with tags, fused parts or gaps DEL508-508): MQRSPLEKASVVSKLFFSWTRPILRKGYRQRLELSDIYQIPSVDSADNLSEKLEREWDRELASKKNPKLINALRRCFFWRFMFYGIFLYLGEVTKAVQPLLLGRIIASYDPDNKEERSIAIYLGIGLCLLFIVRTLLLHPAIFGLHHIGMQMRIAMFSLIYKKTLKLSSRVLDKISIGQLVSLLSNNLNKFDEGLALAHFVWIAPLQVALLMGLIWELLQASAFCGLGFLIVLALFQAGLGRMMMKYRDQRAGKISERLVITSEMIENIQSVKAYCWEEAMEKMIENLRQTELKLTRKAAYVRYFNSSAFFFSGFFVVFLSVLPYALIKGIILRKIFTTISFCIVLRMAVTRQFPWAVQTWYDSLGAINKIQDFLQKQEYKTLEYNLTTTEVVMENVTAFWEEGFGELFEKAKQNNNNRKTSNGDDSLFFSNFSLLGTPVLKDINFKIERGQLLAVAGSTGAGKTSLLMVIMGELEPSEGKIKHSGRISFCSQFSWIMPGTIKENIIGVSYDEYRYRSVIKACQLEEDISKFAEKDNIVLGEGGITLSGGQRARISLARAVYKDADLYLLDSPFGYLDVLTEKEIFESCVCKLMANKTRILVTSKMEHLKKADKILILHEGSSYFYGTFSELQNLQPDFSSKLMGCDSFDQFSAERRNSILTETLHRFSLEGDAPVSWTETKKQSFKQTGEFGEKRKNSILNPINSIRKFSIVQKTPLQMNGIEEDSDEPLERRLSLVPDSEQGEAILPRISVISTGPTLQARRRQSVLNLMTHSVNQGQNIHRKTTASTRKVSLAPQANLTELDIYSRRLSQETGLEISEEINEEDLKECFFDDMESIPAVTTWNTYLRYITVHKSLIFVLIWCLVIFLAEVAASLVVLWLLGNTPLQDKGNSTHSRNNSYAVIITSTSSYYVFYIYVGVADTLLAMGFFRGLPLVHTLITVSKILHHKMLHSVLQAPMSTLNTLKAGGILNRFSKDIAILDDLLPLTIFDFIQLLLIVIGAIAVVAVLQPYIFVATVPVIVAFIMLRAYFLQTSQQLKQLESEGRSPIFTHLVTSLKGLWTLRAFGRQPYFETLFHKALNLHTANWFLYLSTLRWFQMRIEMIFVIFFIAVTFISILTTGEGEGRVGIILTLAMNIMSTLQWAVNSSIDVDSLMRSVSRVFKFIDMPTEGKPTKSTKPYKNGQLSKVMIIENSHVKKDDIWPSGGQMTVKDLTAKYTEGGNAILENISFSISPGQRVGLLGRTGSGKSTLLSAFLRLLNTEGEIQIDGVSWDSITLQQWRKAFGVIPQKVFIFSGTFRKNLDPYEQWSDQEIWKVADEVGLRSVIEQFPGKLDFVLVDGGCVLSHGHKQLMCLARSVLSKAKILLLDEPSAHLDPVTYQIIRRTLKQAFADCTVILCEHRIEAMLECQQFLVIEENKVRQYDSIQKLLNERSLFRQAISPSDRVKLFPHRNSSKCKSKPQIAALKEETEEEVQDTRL
# Protocol summary: Cell Surface Expression-Horse Radish Peroxidase (CSE-HRP) assay
# Format: cell-based
# Test settings: CFBE41o-F508delCFTR-HRP cells; test compound without co-corrector; 18-24 hours at 33° C.; read-out: EC50 (without co-corrector)
pEC50: −log10 of the molar value.

Completed entries (count: 3):
# Compound, Subject of test, Meas value
rows = [
    ("COc1ccc(C(C)(C)C)cc1CO[C@H]1[C@H](C(C)(C)C)[C@@H](C(=O)O)N(C(=O)OC(C)C)[C@H]1c1cccnc1OC(C)C [Example 245]", "F508delCFTR (Homo sapiens, UniProt P13569, DEL508-508)", "5.00 to 6.00"),
    ("COc1ncc(C2CCC2)cc1CO[C@H]1[C@H](C(C)(C)C)[C@@H](C(=O)O)N(C(=O)OC(C)C(F)(F)F)[C@H]1c1cccnc1OC(C)C (stereo partly drawn) [Example 265]", "F508delCFTR (Homo sapiens, UniProt P13569, DEL508-508)", "> 6.00"),
    ("COc1ncc(C(F)(F)F)cc1CO[C@H]1[C@H](C(C)(C)C)[C@@H](C(=O)O)N(C(=O)[C@@H]2CCCO2)[C@H]1c1ccccc1C(F)(F)F [Example 156]", "F508delCFTR (Homo sapiens, UniProt P13569, DEL508-508)", "5.00 to 6.00"),
]

Q. # get_value(readout='pEC50', item= COc1ncc(C(F)(F)F)cc1CO[C@H]1[C@H](C(C)(C)C)[C@@H](C(=O)O)N(C(=O)[C@@H]2CCCO2)[C@H]1c1ccccc1Br [Example 159] )
A. > 6.00

Q. # get_value(readout='pEC50', item= COc1ncc(C(F)(F)F)cc1CO[C@H]1[C@H](C(C)(C)C)[C@@H](C(=O)O)N(C(=O)[C@@H]2CCCCO2)[C@H]1c1cc(Cl)ccc1C [Example 230] )
A. 5.00 to 6.00

Q. # get_value(readout='pEC50', item= COc1ccc(C(C)(C)C)cc1CO[C@H]1[C@H](C(C)(C)C)[C@@H](C(=O)O)N(C(=O)C2CCCCC2)[C@H]1c1cccnc1OC(C)C [Example 251] )
A. > 6.00

Q. # get_value(readout='pEC50', item= COc1ncc(C(F)(F)F)cc1CO[C@H]1[C@H](C(C)(C)C)[C@@H](C(=O)O)N(C(=O)[C@@H]2CCCCO2)[C@H]1c1cccc2ccoc12 [Example 212] )
A. 5.00 to 6.00

Q. # get_value(readout='pEC50', item= COc1ncc(C(F)(F)F)cc1CO[C@H]1[C@H](C(C)(C)C)[C@@H](C(=O)O)N(C(=O)[C@@H]2CCCCO2)[C@H]1c1cc(I)ccc1C [Example 281] )
A. 5.00 to 6.00

Q. # get_value(readout='pEC50', item= COc1ncc(C2CCC2)cc1CO[C@H]1[C@H](C(C)(C)C)[C@@H](C(=O)O)N(C(=O)[C@@H]2CCCCO2)[C@H]1c1cccnc1OC(C)C [Example 136] )
A. > 6.00

Q. # get_value(readout='pEC50', item= COc1ncc(-c2ccccc2)cc1CO[C@H]1[C@H](C(C)(C)C)[C@@H](C(=O)O)N(C(=O)OC(C)C)[C@H]1c1ccccc1 [Example 42] )
A. 5.00 to 6.00

Q. # get_value(readout='pEC50', item= COc1ncc(C(F)(F)F)cc1CO[C@H]1[C@H](C(C)(C)C)[C@@H](C(=O)O)N(C(=O)[C@@H]2CCCCO2)[C@H]1c1ccccc1C1=CCN(C)CC1 [Example 192] )
A. 5.00 to 6.00

Q. # get_value(readout='pEC50', item= COc1nc2ccccc2cc1CO[C@H]1[C@H](C(C)(C)C)[C@@H](C(=O)O)N(C(=O)OC(C)C)[C@H]1c1ccccc1C1CC1 [Example 143] )
A. 5.00 to 6.00

Values from patent US10399940B2
